target: Pyruvate kinase PKLR (Homo sapiens, UniProt P30613); assay: Inhibition of PKL (unknown origin) at 10 uM for 30 mins by Kinase-Glo Max reagent based luminescence assay
Sequence (P30613 whole entry, looked up): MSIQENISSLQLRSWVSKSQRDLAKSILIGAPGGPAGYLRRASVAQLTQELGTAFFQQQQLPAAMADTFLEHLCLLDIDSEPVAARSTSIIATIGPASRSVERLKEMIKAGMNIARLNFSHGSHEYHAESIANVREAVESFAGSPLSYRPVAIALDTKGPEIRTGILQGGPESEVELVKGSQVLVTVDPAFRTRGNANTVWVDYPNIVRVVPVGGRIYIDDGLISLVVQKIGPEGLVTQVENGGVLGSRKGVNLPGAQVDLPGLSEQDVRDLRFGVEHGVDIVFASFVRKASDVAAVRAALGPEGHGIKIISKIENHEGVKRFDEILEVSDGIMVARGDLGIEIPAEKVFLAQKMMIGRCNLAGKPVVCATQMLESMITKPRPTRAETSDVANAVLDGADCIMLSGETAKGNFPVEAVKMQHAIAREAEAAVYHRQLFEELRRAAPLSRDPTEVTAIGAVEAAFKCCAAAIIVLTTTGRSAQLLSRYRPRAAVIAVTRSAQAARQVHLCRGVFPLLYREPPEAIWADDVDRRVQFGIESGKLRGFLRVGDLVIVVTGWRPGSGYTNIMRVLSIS
REPORTED ENDPOINT: inhibition (%)
// return numeric value only (unit: %, not printed)

Report measured inhibition; entry is COc1c(S(=O)(=O)O)cc2c(c1OC)C(=O)c1ccccc1C2=O
19

Report measured inhibition; entry is O=C(O)C[C@H](NC(=O)C1CCN(S(=O)(=O)c2cc3c(c(O)c2O)C(=O)c2ccccc2C3=O)CC1)C(=O)O
35

Report measured inhibition; entry is O=C1c2ccccc2C(=O)c2c(O)cc(S(=O)(=O)O)cc21
65

Report measured inhibition; entry is O=C(O)CC[C@H](NC(=O)C1CCCN(S(=O)(=O)c2cc3c(c(O)c2O)C(=O)c2ccccc2C3=O)C1)C(=O)O (some centres undefined)
94

Report measured inhibition; entry is O=C(O)CNS(=O)(=O)c1cc2c(cc1O)C(=O)c1ccccc1C2=O
86

Report measured inhibition; entry is O=C(O)CC(O)(CC(=O)N1CCN(S(=O)(=O)c2cc(O)c3c(c2)C(=O)c2ccccc2C3=O)CC1)C(=O)O (centres undefined)
3

Report measured inhibition; entry is O=C1c2ccccc2C(=O)c2c1cc(S(=O)(=O)N1CCCC(C(=O)O)C1)c(O)c2O (centres undefined)
92

Report measured inhibition; entry is O=C(O)CNc1cc2c(cc1O)C(=O)c1ccccc1C2=O
82

Report measured inhibition; entry is O=C(O)CC(O)(CC(=O)N1CCN(C(=O)c2cc3c(c(O)c2O)C(=O)c2ccccc2C3=O)CC1)C(=O)O (centres undefined)
-1

====

Exercise: state measured inhibition for each of the compounds provided.
molecular target: Pyruvate kinase PKLR (Homo sapiens, UniProt P30613); experiment: Inhibition of PKL (unknown origin) at 10 uM for 30 mins by Kinase-Glo Max reagent based luminescence assay
// return numeric value only (unit: %, not printed)

Report measured inhibition; entry is O=C1c2ccccc2C(=O)c2c1ccc(O)c2O
51

Report measured inhibition; entry is O=C(O)CC(O)(CC(=O)N1CCN(S(=O)(=O)c2cc3c(c(O)c2O)C(=O)c2ccccc2C3=O)CC1)C(=O)O (centres undefined)
100

Report measured inhibition; entry is O=C(O)C[C@H](NC(=O)C1CCCN(S(=O)(=O)c2cc3c(c(O)c2O)C(=O)c2ccccc2C3=O)C1)C(=O)O (some centres undefined)
72

Report measured inhibition; entry is O=C(O)Cc1ccc(CNc2cc3c(c(O)c2O)C(=O)c2ccccc2C3=O)cc1
96

====

biological target: Pyruvate kinase PKLR (Homo sapiens, UniProt P30613); experiment: Inhibition of PKL (unknown origin) at 10 uM for 30 mins by Kinase-Glo Max reagent based luminescence assay
Please note: class 1 applies when inhibition is 70% or greater, and class 0 applies otherwise.

Decide: is the reported value of inhibition for NS(=O)(=O)c1cccc(-c2cc3c(c(O)c2O)C(=O)c2ccccc2C3=O)c1 equal to or greater than 70%?
class 0

Decide: is the reported value of inhibition for O=C(O)Cc1ccc(CNC(=O)N2CCN(S(=O)(=O)c3cc4c(c(O)c3O)C(=O)c3ccccc3C4=O)CC2)cc1C(=O)O equal to or greater than 70%?
class 1

Decide: is the reported value of inhibition for O=C(O)CNC(=O)CNC(=O)CNS(=O)(=O)c1cc2c(c(O)c1O)C(=O)c1ccccc1C2=O equal to or greater than 70%?
class 1

Decide: is the reported value of inhibition for Nc1c(S(=O)(=O)O)cc2c(c1O)C(=O)c1ccccc1C2=O equal to or greater than 70%?
class 1

Decide: is the reported value of inhibition for O=C1c2ccccc2C(=O)c2c1cc(C(=O)N1CCNCC1)c(O)c2O equal to or greater than 70%?
class 0

Decide: is the reported value of inhibition for O=C1c2ccccc2C(=O)c2cc(S(=O)(=O)N3CCN(C(=O)CC(O)(C(=O)O)C(=O)O)CC3)c(O)cc21 equal to or greater than 70%?
class 0

Decide: is the reported value of inhibition for CS(=O)(=O)c1cccc(-c2cc3c(c(O)c2O)C(=O)c2ccccc2C3=O)c1 equal to or greater than 70%?
class 0

Decide: is the reported value of inhibition for O=C1c2ccccc2C(=O)c2c1cc(S(=O)(=O)N1CCNCC1)c(O)c2O equal to or greater than 70%?
class 1

Decide: is the reported value of inhibition for CSCCC(NS(=O)(=O)c1cc2c(c(O)c1O)C(=O)c1ccccc1C2=O)C(=O)O (centres undefined) equal to or greater than 70%?
class 1

====

target: UniProt:P30613; assay: Inhibition of PKL (unknown origin) for 30 mins by Kinase-Glo Max reagent based luminescence assay
Sequence (P30613 whole entry): as the sequence (P30613 whole entry, looked up) above
Doc: threshold 1000 nM (exclusive). Items with IC50 beneath it return 1; others return 0.

Hello, is IC50 of the following molecule strictly smaller than 1000 nM? O=C1c2ccccc2C(=O)c2c1cc(S(=O)(=O)N1CCC(C(=O)O)CC1)c(O)c2O
0

Hello, is IC50 of the following molecule strictly smaller than 1000 nM? COC[C@H](NS(=O)(=O)c1cc2c(c(O)c1O)C(=O)c1ccccc1C2=O)C(=O)O
0

Hello, is IC50 of the following molecule strictly smaller than 1000 nM? CSCCC(NS(=O)(=O)c1cc2c(c(O)c1O)C(=O)c1ccccc1C2=O)C(=O)O (configuration not stated)
0

Hello, is IC50 of the following molecule strictly smaller than 1000 nM? O=C(O)CC(Nc1cc2c(c(O)c1O)C(=O)c1ccccc1C2=O)C(=O)O (configuration not stated)
0

Hello, is IC50 of the following molecule strictly smaller than 1000 nM? O=C(O)CCCCNS(=O)(=O)c1cc2c(c(O)c1O)C(=O)c1ccccc1C2=O
0

Hello, is IC50 of the following molecule strictly smaller than 1000 nM? O=C(O)CNS(=O)(=O)c1cc2c(c(O)c1O)C(=O)c1ccccc1C2=O
1

Hello, is IC50 of the following molecule strictly smaller than 1000 nM? O=C(O)Cc1ccc(CNC(=O)N2CCN(S(=O)(=O)c3cc4c(c(O)c3O)C(=O)c3ccccc3C4=O)CC2)cc1C(=O)O
1

====

biological target: Pyruvate kinase PKLR (Homo sapiens, UniProt P30613); assay: Inhibition of PKL in human PKM2 knockout HepG2 cells at 10 uM incubated for 5 mins by Microplate reader based analysis relative to control; format: cell-based
Please note: Criterion met applies when inhibition is 60% or greater, and Criterion not met applies otherwise.

Decide: is the reported value of inhibition for O=C(O)Cc1ccc(CNC(=O)Nc2cc3c(c(O)c2O)C(=O)c2ccccc2C3=O)cc1C(=O)O equal to or greater than 60%?
Criterion not met

Decide: is the reported value of inhibition for O=C1c2ccccc2C(=O)c2cc(S(=O)(=O)N3CCCC(C(=O)O)C3)c(O)cc21 (configuration not stated) equal to or greater than 60%?
Criterion not met

Decide: is the reported value of inhibition for O=C(O)Cc1ccc(CNc2cc3c(cc2O)C(=O)c2ccccc2C3=O)cc1 equal to or greater than 60%?
Criterion not met

Decide: is the reported value of inhibition for O=C(O)Cc1ccc(CNc2cc3c(c(O)c2O)C(=O)c2ccccc2C3=O)cc1 equal to or greater than 60%?
Criterion met

Decide: is the reported value of inhibition for O=C1c2ccccc2C(=O)c2cc(S(=O)(=O)N3CCN(C(=O)CC(O)(C(=O)O)C(=O)O)CC3)c(O)cc21 equal to or greater than 60%?
Criterion not met

Decide: is the reported value of inhibition for O=C(O)Cc1ccc(CNc2cc3c(c(O)c2O)C(=O)c2ccccc2C3=O)cc1C(=O)O equal to or greater than 60%?
Criterion met

Decide: is the reported value of inhibition for O=C(O)CNS(=O)(=O)c1cc2c(cc1O)C(=O)c1ccccc1C2=O equal to or greater than 60%?
Criterion met

Decide: is the reported value of inhibition for O=C1c2ccccc2C(=O)c2c1cc(S(=O)(=O)O)c(O)c2O equal to or greater than 60%?
Criterion not met

Decide: is the reported value of inhibition for O=C(O)CC(Nc1cc2c(c(O)c1O)C(=O)c1ccccc1C2=O)C(=O)O (configuration not stated) equal to or greater than 60%?
Criterion met

Decide: is the reported value of inhibition for O=C(O)Cc1ccc(CNc2cc3c(cc2O)C(=O)c2ccccc2C3=O)cc1C(=O)O equal to or greater than 60%?
Criterion not met

Decide: is the reported value of inhibition for O=C(O)CNc1cc2c(cc1O)C(=O)c1ccccc1C2=O equal to or greater than 60%?
Criterion met

====

biological target: Pyruvate kinase PKLR (Homo sapiens)
pIC50: −log10 of the molar value.
Please note: Met applies when pIC50 is 6 or greater, and Not met applies otherwise.

Decide: is the reported value of pIC50 for O=C(O)Cc1ccc(CNc2cc3c(c(O)c2O)C(=O)c2ccccc2C3=O)cc1 equal to or greater than 6?
Not met

Decide: is the reported value of pIC50 for O=C(O)Cc1ccc(CNC(=O)Nc2cc3c(c(O)c2O)C(=O)c2ccccc2C3=O)cc1C(=O)O equal to or greater than 6?
Not met

Decide: is the reported value of pIC50 for O=C(O)CC[C@H](NC(=O)N1CCN(S(=O)(=O)c2cc3c(c(O)c2O)C(=O)c2ccccc2C3=O)CC1)C(=O)O equal to or greater than 6?
Met

Decide: is the reported value of pIC50 for O=C1c2ccccc2C(=O)c2c1cc(S(=O)(=O)O)c(O)c2O [Alizarin Red S] equal to or greater than 6?
Met

Decide: is the reported value of pIC50 for O=C1c2ccccc2C(=O)c2c(O)cc(S(=O)(=O)O)cc21 equal to or greater than 6?
Not met
